# TESTED TARGET: Human immunodeficiency virus type 1 reverse transcriptase (Human immunodeficiency virus 1)
# PROCEDURE DETAILS: Inhibition of recombinant reverse transcriptase (RT) in cell-free Quan-T-RT assay system
MEASURED PROPERTY: IC90

{"columns": ["MOLECULE", "TESTED TARGET", "MEASURED PROPERTY", "TEST VALUE"],
 "data": [
  ["S=C(NCCc1c[nH]c2ccccc12)Nc1ccc(Br)cn1", "Human immunodeficiency virus type 1 reverse transcriptase (Human immunodeficiency virus 1)", "IC90", "> 100 µM"],
  ["S=C(NCCc1ccco1)Nc1ccc(Br)cn1", "Human immunodeficiency virus type 1 reverse transcriptase (Human immunodeficiency virus 1)", "IC90", "> 100 µM"],
  ["S=C(NCCN1CCOCC1)Nc1ccc(Br)cn1", "Human immunodeficiency virus type 1 reverse transcriptase (Human immunodeficiency virus 1)", "IC90", "> 100 µM"],
  ["S=C(NCCc1c[nH]cn1)Nc1ccc(Br)cn1", "Human immunodeficiency virus type 1 reverse transcriptase (Human immunodeficiency virus 1)", "IC90", "> 100 µM"],
  ["S=C(NCCc1ccccn1)Nc1ccc(Br)cn1 [TROVIRDINE]", "Human immunodeficiency virus type 1 reverse transcriptase (Human immunodeficiency virus 1)", "IC90", "12 µM"],
  ["S=C(NCCc1ccc2c(c1)OCO2)Nc1ccc(Br)cn1", "Human immunodeficiency virus type 1 reverse transcriptase (Human immunodeficiency virus 1)", "IC90", "> 100 µM"],
  ["CN1CCCC1CC/N=C(\\S)Nc1ccc(Br)cn1 (centres undefined)", "Human immunodeficiency virus type 1 reverse transcriptase (Human immunodeficiency virus 1)", "IC90", "> 100 µM"],
  ["S=C(NCCN1CCCC1)Nc1ccc(Br)cn1", "Human immunodeficiency virus type 1 reverse transcriptase (Human immunodeficiency virus 1)", "IC90", "> 100 µM"],
  ["S=C(NCCc1cccs1)Nc1ccc(Br)cn1", "Human immunodeficiency virus type 1 reverse transcriptase (Human immunodeficiency virus 1)", "IC90", "15 µM"]
]}
